- System: RPMI-8226 leukemia
- test description: NCI-60 one-dose screen, 48 h
- test context: 10 µM unless noted
This is part of a sample that, as a whole, favours compounds with a hit. Of some 83,000 tested, about 20% had one in any assay. Activity calls are given as the source filed them. The calls were made as follows: active = growth percent below 10; inactive = the rest.
// classify into active, inactive

Worked examples, 6 molecules total:
CCCCCCCC[n+]1ccc2ccccc2c1 = inactive
COc1cccc(C=NC(Cc2cnc[nH]2)C(=O)O)c1O (stereo unspecified) = inactive
Fc1ccc2c(c1)c(-c1nc(-c3c[nH]c4ncccc34)cs1)cn2CCN1CCOCC1 = inactive
CN(C)C(=O)Oc1ccccc1 = inactive
[Au+].[N-]=C=O.c1ccc(CN2[CH-]N(Cc3ccccc3)C(c3ccccc3)=C2c2ccccc2)cc1 = inactive
CCCCN(CCCC)P(=O)(Oc1ccccc1)Oc1ccccc1 = inactive

Let us examine a further case.
Per the records of this test, what outcome belongs to "COc1ccc(N(CC(=O)NCCC[Te]c2ccccc2)C(=O)CCSC2=C(C)C(=O)c3ccccc3C2=O)cc1" ?
active
